// data source = ChEMBL document CHEMBL1131100

Here's a batch of compounds along with measured IC50 for Nitric oxide synthase, inducible (Homo sapiens, UniProt P35228).
Record the value in nM, omitting the unit from your answer.

Look over these answered cases.
{"compound": "CCCC1N=C(N)CC1C (stereo not given)", "IC50 / nM": 300}
{"compound": "CCCCCC1N=C(N)CC1C(F)(F)F (stereo in doubt; 22)", "IC50 / nM": 230}
{"compound": "CC1CCC(N)=N1 (stereo not given)", "IC50 / nM": 10200}
{"compound": "CCCCCC1N=C(N)CC1C (stereo in doubt; 9)", "IC50 / nM": 910}
{"compound": "CCC1CN=C(N)C1 (stereo not given)", "IC50 / nM": 3400}

Proceeding to the next compound to report its IC50.
Which measured IC50 belongs to CCCCC1N=C(N)CC1C (stereo not given) , tested on Nitric oxide synthase, inducible (Homo sapiens, UniProt P35228)?
660
